FYI, the data here is from PubChem BioAssay AID248.

Test system: L1210 leukemia ip in BDF1 mice, survival T/C
Test: NCI In Vivo Anticancer Drug Screen. Data for tumor model L1210 Leukemia (intraperitoneal) in B6D2F1 (BDF1) mice
Conditions: endpoint: mean survival time; dose: 150.0 mg/kg/injection; schedule: Q01DX001 (ip); vehicle: other; higher = longer survival
Toxic doses and inconclusive results are not listed.
quantity-name: T/C

{"molecule": "O=C1CCC2=C3C4CCCCC4C(=O)C4CCCC(OC2C1)C34 (centres undefined)", "reported-value": "94 % of control"}
{"molecule": "O=C1C2C3CC4C2C(=O)C2C1C3C42 (centres undefined)", "reported-value": "101 % of control"}
{"molecule": "CC(C)CCNNCCC(C)C", "reported-value": "104 % of control"}
{"molecule": "CC(C)C1=CC23CCC4C(C)(C(=O)O)CCCC4(C)C2CC1C1C(=O)N(CCCN(C)C)C(=O)C13 (centres undefined)", "reported-value": "94 % of control"}
